B1: TRIM35 (parent)
chain: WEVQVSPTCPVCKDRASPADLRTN

Variants of: B1
Assay: protein stability index of a GFP-peptide fusion (GPS, HEK-293T) (PSI 1-6); higher = more stable;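 further: lentivirally expressed fusions sorted by FACS into six bins by GFP to DsRed ratio, PSI derived from sequencing read proportions per bin multiplied by bin number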
Conditions: c terminus: a fixed tail appended
Everything with protein stability index lower than 2 is F; everything else, including exactly 2, is T.

{"columns": ["SEQ_STRING", "CATEGORY"],
 "data": [
  ["WEVQVSPTCPVCKDRASPRDLRTN", "F"],
  ["WEVQVSPTYPVCKDRASPADLRTN", "T"],
  ["WEVQYSPTCPVCKDRASPADLRTN", "T"],
  ["WIVQVSPTCPVCKDRASPADLRTN", "T"],
  ["WEVQVSPTCPVCKDRASPAELRTN", "T"],
  ["WEVQVSPTCPVCKDRASPADLDTN", "T"],
  ["WEVQVSPTCPVCKDRAAPADLRTN", "T"],
  ["WEVQVSPFCPVCKDRASPADLRTN", "F"],
  ["WPVQVSPTCPVCKDRASPADLRTN", "T"]
]}
